Source: the RNAGym collection of RNA variant scans (doi:10.1021/acssynbio.7b00057)

I'd appreciate it if you could supply aptazyme ON/OFF ratio values for the items below.
B1: Pistol ribozyme (parent)
chain: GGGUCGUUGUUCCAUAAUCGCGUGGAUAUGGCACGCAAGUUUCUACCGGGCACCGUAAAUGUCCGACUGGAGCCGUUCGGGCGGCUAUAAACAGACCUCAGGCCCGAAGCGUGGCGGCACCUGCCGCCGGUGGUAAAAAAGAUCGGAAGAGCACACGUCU

# Variants of: B1
# measurementProtocol: aptazyme ON/OFF ratio, guanine; higher = stronger switching; co-transcriptional cleavage with and without guanine
Give the figure by itself; no unit, no explanation.

Task: Form field: reported aptazyme ON/OFF ratio of U7A U8A G9C U10A U11C C12G
Result: 1.16

Task: Give the measured aptazyme ON/OFF ratio of U7C U8A G9U U11C C12A C13U .
Result: 1.2

Task: Record request: aptazyme ON/OFF ratio value, item U7G U8A U10G U11C C13A
Result: 1.21

Task: Need aptazyme ON/OFF ratio of U7G U8C G9A U10C U11A C12G C13A , thanks.
Result: 1.06

Task: Need aptazyme ON/OFF ratio of U7C U8A G9U U10A U11G C12U C13U , thanks.
Result: 1.31

Task: Which aptazyme ON/OFF ratio reading was recorded for the variant G9A U10G U11G C12A C13A ?
Result: 1.19

Task: Consider the variant shown here: U8G G9U U10A U11G C12G C13G What is its recorded aptazyme ON/OFF ratio?
Result: 1.15

Task: Tell me the measured aptazyme ON/OFF ratio of U7G U8G G9C U10G U11G C12G C13G , please.
Result: 1.17

Task: Reported aptazyme ON/OFF ratio for U7A U8C U10A U11C C12G C13U : what is it?
Result: 1.13

Task: Please look up its aptazyme ON/OFF ratio: U7C U8C G9A U10C C12U C13U
Result: 1.32

Task: Which measured aptazyme ON/OFF ratio value corresponds to U7G G9C U10C C12A ?
Result: 1.5

Task: Returns the measured aptazyme ON/OFF ratio for the input variant. Input: U7A U8G G9U U10G U11G
Result: 1.38

Task: Fill blank: measured aptazyme ON/OFF ratio of the variant U7G G9A U10C U11G C13A is ____.
Result: 1.09

Task: I have this variant here, U7A U8A U10C U11G C13G , and I need its recorded aptazyme ON/OFF ratio.
Result: 1.2

Task: Which value of aptazyme ON/OFF ratio has been reported for U7G U8G U10C U11G C12U C13U in the records?
Result: 1.41

Task: Can you look up the measured aptazyme ON/OFF ratio of U8C U11G C12U C13U for me?
Result: 1.17

Task: # query: aptazyme ON/OFF ratio of entry U7A U11G C12G
Result: 1.27

Task: Any idea what aptazyme ON/OFF ratio was measured for U7A U10A U11C C12A C13G ?
Result: 1.03

Task: # query: aptazyme ON/OFF ratio of entry U7G U8G G9U U10C U11G C13A
Result: 1.22

Task: Would you mind telling me what aptazyme ON/OFF ratio value was observed for U7A G9C U10C U11C C12A ?
Result: 1.01

Task: Recorded aptazyme ON/OFF ratio for U7C U8G G9U U10C C13U , please?
Result: 2.24

Task: Look at this variant and give its reported aptazyme ON/OFF ratio. U7G U8A U10A C12U C13G
Result: 1.28

Task: Any idea what aptazyme ON/OFF ratio was measured for U7A U8G G9A U11C C12U C13A ?
Result: 1.07

Task: Query (variant): U7G U8A G9A U10G U11A C12G C13G ; field requested: aptazyme ON/OFF ratio
Result: 1.29

Task: Sample U8A G9U U10C U11C C12U C13U — what was its aptazyme ON/OFF ratio?
Result: 1.04

Task: Suppose we examine the variant U7G U8A G9C C12G ; what aptazyme ON/OFF ratio value has been reported?
Result: 1.01

Task: Form field: reported aptazyme ON/OFF ratio of U7C U8C U11G C12G C13A
Result: 1.1

Task: Which aptazyme ON/OFF ratio value is on record for U8A U10C C12A ?
Result: 1.31

Task: What value of aptazyme ON/OFF ratio has been reported for the following variant? U7G G9U U10C U11A C12U C13A
Result: 1.33

Task: Fill blank: measured aptazyme ON/OFF ratio of the variant U7A U8C G9C U10A C12U C13G is ____.
Result: 1.07

Task: Query: aptazyme ON/OFF ratio; subject: U7A U8G G9C U10C C12G C13A
Result: 1.23

Task: Report aptazyme ON/OFF ratio for U7G U8G G9A U10A U11G C12A please.
Result: 1.07

Task: Bench note: what aptazyme ON/OFF ratio did U7A G9A U10G U11G C12G C13U show?
Result: 1.16

Task: Item under review: U10G U11G C13U . Reported aptazyme ON/OFF ratio?
Result: 1.16

Task: Entry U7G U8G G9U U10G U11C C12A C13A has what aptazyme ON/OFF ratio?
Result: 1.1

Task: // returns reported aptazyme ON/OFF ratio for input U7G U8G G9U U11C C12G
Result: 1.43

Task: For the variant U7A U8G G9C U10G U11C C12A C13G , what aptazyme ON/OFF ratio is on record?
Result: 1.22

Task: Please look up its aptazyme ON/OFF ratio: U7A G9U U10A C12U
Result: 1.22

Task: Which measured aptazyme ON/OFF ratio value corresponds to U7G U8A G9A U10G U11G C12A C13U ?
Result: 1.17

Task: Dear colleague, I am looking for the recorded aptazyme ON/OFF ratio of the following variant: U7G U8A G9C U10G U11A C13U
Result: 1.03

Task: What value of aptazyme ON/OFF ratio has been recorded for this entry: U7A G9A C12A
Result: 2.25

Task: Name the reported aptazyme ON/OFF ratio value associated with the variant U7A U8C G9A U10C U11C C12G
Result: 1.11

Task: Name the reported aptazyme ON/OFF ratio value associated with the variant U8G U10C C12A C13G
Result: 1.07

Task: Name the reported aptazyme ON/OFF ratio value associated with the variant U7A U8A G9U U10A U11C
Result: 1.08

Task: # input variant: U7A U8G U10G U11G C12U C13U ; wanted: its aptazyme ON/OFF ratio
Result: 1.38

Task: Entry U7G U8A U10C U11C C12U C13A has what aptazyme ON/OFF ratio?
Result: 1.14
